experiment: Tmax in Wistar rat; type: ADME, organism-based; conditions: in vivo

[
  {
    "Mol Smiles": "Cc1cc(Cl)c(OCCOc2ccc(C3=C(C(=O)N(Cc4cccc(C)c4C)C4CC4)[C@H]4CNC[C@@H](C3)N4)cc2)c(Cl)c1",
    "Tmax, h": 10
  }
]

###

Molecular target: Renin (Homo sapiens)
Sequence (P00797 whole entry): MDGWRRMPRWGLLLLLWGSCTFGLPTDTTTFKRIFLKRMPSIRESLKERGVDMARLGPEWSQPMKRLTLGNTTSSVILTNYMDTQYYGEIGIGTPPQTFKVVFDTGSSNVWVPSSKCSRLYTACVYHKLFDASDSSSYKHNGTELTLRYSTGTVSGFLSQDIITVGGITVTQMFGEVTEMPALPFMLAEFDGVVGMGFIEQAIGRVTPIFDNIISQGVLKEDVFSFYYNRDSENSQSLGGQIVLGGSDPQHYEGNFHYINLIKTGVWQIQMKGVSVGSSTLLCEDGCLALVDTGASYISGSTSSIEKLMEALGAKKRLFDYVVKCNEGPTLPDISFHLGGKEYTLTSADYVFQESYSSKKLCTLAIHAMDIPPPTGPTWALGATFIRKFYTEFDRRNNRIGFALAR
Assay: Binding affinity to human recombinant renin by isothermal titration calorimetry
pKd: −log10 of the molar value.

[
  {
    "Mol Smiles": "CCc1nc(N)nc(NCCc2ccccc2NC(=O)c2ccc(N)c(OC)c2)c1-c1ccc2c(c1)N(CCCOC)C(=O)C(C)(C)O2",
    "pKd": 6.57
  },
  {
    "Mol Smiles": "CCc1nc(N)nc(NCCNS(=O)(=O)c2ccc3ccccc3c2)c1-c1ccc2c(c1)N(CCCOC)C(=O)C(C)(C)O2",
    "pKd": 7.10
  }
]

###

experiment: Oral bioavailability in rhesus monkey; assay type: ADME, organism-based, Macaca mulatta; conditions: in vivo

[
  {
    "Mol Smiles": "O=C(C1=C(c2ccc(CCCOc3c(F)ccc(F)c3Cl)cc2)C[C@@H]2CNC[C@H]1N2)N(Cc1cccc(Cl)c1Cl)C1CC1",
    "bioavailability": "9%"
  }
]

###

assay: Aqueous solubility of the compound at pH 6.6 buffer; assay type: physicochemical
Reported solubility is given for each of the following molecules.

[
  {
    "Mol Smiles": "COc1ccccc1COCCCOc1ccc([C@H]2CCNC[C@@H]2OCc2ccc3c(c2)N(CCNC(C)=O)CCC3)cc1",
    "Qualifier Operator": "=",
    "solubility [µg/mL]": 124
  },
  {
    "Mol Smiles": "COc1ccccc1COCCCOc1ccc([C@@H]2[C@@H](OCc3cc(OC)c4ccccc4c3)CNC[C@H]2OC[C@H](O)CO)cc1",
    "Qualifier Operator": "=",
    "solubility [µg/mL]": 24
  },
  {
    "Mol Smiles": "COc1ccccc1COCCCOc1ccc([C@H]2CCNC[C@@H]2OCc2ccc3c(c2)NCCC3)cc1",
    "Qualifier Operator": "=",
    "solubility [µg/mL]": 3
  },
  {
    "Mol Smiles": "COC[C@@H](O)CO[C@@H]1CNC[C@H](OCc2cc(OC)c3ccccc3c2)[C@H]1c1ccc(OCCCOCc2ccccc2OC)cc1",
    "Qualifier Operator": "=",
    "solubility [µg/mL]": 3
  },
  {
    "Mol Smiles": "CNC[C@H](CC1CCCCC1)NC(=O)N1CCC[C@@H]([C@@](O)(CCCCOC)c2cccc(Cl)c2)C1",
    "Qualifier Operator": ">",
    "solubility [µg/mL]": 1000
  }
]

###

test: Oral bioavailability in rat; type: ADME, organism-based; settings: in vivo

[
  {
    "Compound": "CNC[C@H](CC1CCCCC1)NC(=O)N1CCC[C@@H]([C@@H](OCCNC(=O)OC)c2cccc(Cl)c2)C1",
    "bioavailability, %": 9
  },
  {
    "Compound": "CCc1nc(N)nc(N)c1-c1ccc2c(c1)N(CCNC(C)=O)C(=O)[C@](C)(c1ccccc1)O2",
    "bioavailability, %": 10
  },
  {
    "Compound": "Cc1cc(Cl)c(OCCOc2ccc(C3=C(C(=O)N(Cc4cccc(C)c4C)C4CC4)[C@H]4CNC[C@@H](C3)N4)cc2)c(Cl)c1",
    "bioavailability, %": 24
  },
  {
    "Compound": "CCc1nc(N)nc(N)c1-c1ccc2c(c1)N(CCCO)C(=O)C(C)(c1ccccc1)O2 (racemic)",
    "bioavailability, %": 44
  },
  {
    "Compound": "CNC[C@H](CC1CCCCC1)NC(=O)N1CCC[C@@H]([C@@H](OCCCOC)c2ccccc2)C1",
    "bioavailability, %": 36
  },
  {
    "Compound": "CNC[C@H](CC1CCCCC1)NC(=O)N1CCC[C@@H]([C@@](O)(CCCCOC)c2cccc(Cl)c2)C1",
    "bioavailability, %": 13
  }
]

###

test: Oral bioavailability in Wistar rat; assay type: ADME, organism-based; conditions: in vivo
Recorded Metric: bioavailability (%)

[
  {
    "Mol Smiles": "Cc1cc(Cl)c(OCCOc2ccc(C3=C(C(=O)N(Cc4cccc(C)c4C)C4CC4)[C@H]4CNC[C@@H](C3)N4)cc2)c(Cl)c1",
    "Value Units": "%",
    "Readout Number": 24
  }
]

###

target: Renin (Macaca mulatta); test: Inhibition of renin in monkey plasma
Sequence (Q6DLW5 whole entry): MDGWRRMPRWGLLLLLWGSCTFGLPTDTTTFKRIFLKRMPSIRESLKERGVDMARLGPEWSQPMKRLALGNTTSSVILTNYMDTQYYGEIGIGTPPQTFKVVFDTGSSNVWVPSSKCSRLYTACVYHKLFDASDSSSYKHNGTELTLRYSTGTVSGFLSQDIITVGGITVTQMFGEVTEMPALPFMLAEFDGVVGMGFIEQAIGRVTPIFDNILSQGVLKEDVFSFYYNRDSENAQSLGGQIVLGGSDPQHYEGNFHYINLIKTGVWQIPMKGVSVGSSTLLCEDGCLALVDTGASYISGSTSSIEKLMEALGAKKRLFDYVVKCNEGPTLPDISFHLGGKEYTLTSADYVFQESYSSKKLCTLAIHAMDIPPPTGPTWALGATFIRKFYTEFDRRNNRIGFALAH
pIC50: −log10 of the molar value.
Recorded Metric: pIC50

[
  {
    "Compound": "C=CC[C@H](NC(=O)CNS(=O)(=O)N1CCOCC1)C(=O)N[C@@H](CC1CC=C(c2cccc3ccccc23)CC1)[C@@H](O)[C@@H](O)CC(C)C (stereo partly specified)",
    "Target System": "Renin (Macaca mulatta)",
    "Recorded Metric": "pIC50",
    "Readout Number": 7.96
  }
]

###

assay: Elimination half life in dog; format: ADME, organism-based, Canis lupus familiaris; conditions: in vivo, read-out: beta t1/2 (converted)
Recorded Metric: half-life (h)

[
  {
    "Mol Smiles": "O=C(C1=C(c2ccc(CCCOc3c(F)ccc(F)c3Cl)cc2)C[C@@H]2CNC[C@H]1N2)N(Cc1cccc(Cl)c1Cl)C1CC1",
    "Value Units": "h",
    "Readout Number": 10
  }
]

###

target: Cytochrome P450 3A4 (Homo sapiens, UniProt P08684)
Sequence (P08684 whole entry): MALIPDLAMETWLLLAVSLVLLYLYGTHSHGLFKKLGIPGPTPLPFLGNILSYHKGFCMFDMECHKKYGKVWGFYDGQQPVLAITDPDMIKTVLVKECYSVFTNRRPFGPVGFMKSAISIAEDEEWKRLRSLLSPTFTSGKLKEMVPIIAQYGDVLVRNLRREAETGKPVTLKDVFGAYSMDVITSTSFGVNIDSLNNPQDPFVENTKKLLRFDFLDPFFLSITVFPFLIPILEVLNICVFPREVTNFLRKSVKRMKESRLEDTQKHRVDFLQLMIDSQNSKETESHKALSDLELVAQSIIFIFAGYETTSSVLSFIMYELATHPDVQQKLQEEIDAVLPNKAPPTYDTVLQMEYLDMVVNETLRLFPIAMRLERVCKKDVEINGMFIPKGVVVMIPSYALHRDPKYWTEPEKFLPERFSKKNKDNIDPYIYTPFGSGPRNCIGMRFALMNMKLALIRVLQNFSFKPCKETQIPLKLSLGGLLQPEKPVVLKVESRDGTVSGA

[
  {
    "Mol Smiles": "O=C(C1=C(c2ccc(CCCOc3c(F)ccc(F)c3Cl)cc2)C[C@@H]2CNC[C@H]1N2)N(Cc1cccc(Cl)c1Cl)C1CC1",
    "IC50": "> 10 µM"
  }
]

###

assay: Elimination half life in Wistar rat; type: ADME, organism-based; settings: in vivo, read-out: beta t1/2 (converted)

[
  {
    "Mol Smiles": "Cc1cc(Cl)c(OCCOc2ccc(C3=C(C(=O)N(Cc4cccc(C)c4C)C4CC4)[C@H]4CNC[C@@H](C3)N4)cc2)c(Cl)c1",
    "half-life (h)": 6.6
  }
]

###

experiment: Distribution coefficient, log D of the compound; assay type: physicochemical; details: octanol/water
Reported logD is given for each of the following compounds.

[
  {
    "Mol Smiles": "COc1ccccc1COCCCOc1ccc([C@H]2CCNC[C@@H]2OCc2ccc3c(c2)NCCC3)cc1",
    "Qualifier Operator": "=",
    "logD": 5.6
  },
  {
    "Mol Smiles": "COc1ccccc1COCCCOc1ccc([C@H]2CCNC[C@@H]2OCc2ccc3c(c2)N(CCNC(C)=O)CCC3)cc1",
    "Qualifier Operator": "=",
    "logD": 3
  },
  {
    "Mol Smiles": "Cc1cc(Cl)c(OCCOc2ccc(C3=C(C(=O)N(Cc4cccc(C)c4C)C4CC4)[C@H]4CNC[C@@H](C3)N4)cc2)c(Cl)c1",
    "Qualifier Operator": ">",
    "logD": 4.9
  },
  {
    "Mol Smiles": "O=C(C1=C(c2ccc(CCCOc3c(F)ccc(F)c3Cl)cc2)C[C@@H]2CNC[C@H]1N2)N(Cc1cccc(Cl)c1Cl)C1CC1",
    "Qualifier Operator": ">",
    "logD": 4.6
  }
]

###

target: Voltage-gated inwardly rectifying potassium channel KCNH2 (Homo sapiens, UniProt Q12809)
Sequence (Q12809 whole entry): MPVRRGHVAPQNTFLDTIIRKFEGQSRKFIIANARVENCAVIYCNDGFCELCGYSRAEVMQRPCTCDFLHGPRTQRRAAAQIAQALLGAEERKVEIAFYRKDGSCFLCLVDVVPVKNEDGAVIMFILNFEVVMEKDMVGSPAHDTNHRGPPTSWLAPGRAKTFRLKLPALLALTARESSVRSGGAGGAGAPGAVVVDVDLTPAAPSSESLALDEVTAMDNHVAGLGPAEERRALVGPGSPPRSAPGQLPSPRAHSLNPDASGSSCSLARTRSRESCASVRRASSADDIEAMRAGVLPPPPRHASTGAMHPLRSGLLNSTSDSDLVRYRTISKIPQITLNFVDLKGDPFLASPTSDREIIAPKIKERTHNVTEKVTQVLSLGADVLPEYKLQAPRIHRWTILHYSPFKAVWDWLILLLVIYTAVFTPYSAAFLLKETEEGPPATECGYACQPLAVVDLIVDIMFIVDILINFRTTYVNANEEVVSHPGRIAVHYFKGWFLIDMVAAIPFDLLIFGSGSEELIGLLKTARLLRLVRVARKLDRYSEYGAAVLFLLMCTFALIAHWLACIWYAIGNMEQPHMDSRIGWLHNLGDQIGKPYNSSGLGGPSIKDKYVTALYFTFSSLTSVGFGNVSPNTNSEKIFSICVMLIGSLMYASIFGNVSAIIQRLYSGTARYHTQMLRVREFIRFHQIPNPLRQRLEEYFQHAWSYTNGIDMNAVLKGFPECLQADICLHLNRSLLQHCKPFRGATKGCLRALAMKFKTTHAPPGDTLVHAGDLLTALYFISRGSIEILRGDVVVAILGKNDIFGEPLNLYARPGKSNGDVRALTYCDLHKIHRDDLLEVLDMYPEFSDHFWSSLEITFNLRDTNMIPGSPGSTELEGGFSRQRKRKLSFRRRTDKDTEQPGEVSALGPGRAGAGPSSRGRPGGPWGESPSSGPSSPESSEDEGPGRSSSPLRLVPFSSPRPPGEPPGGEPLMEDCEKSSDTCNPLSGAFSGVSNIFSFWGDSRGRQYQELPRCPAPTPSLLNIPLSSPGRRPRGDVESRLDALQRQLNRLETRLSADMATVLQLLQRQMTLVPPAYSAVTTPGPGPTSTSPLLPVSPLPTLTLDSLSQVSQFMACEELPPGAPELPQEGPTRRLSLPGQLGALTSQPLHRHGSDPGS
pIC50: −log10 of the molar value.
Recorded Metric: pIC50

[
  {
    "Mol Smiles": "CNC[C@H](CC1CCCCC1)NC(=O)N1CCC[C@@H]([C@@](O)(CCCCOC)c2cccc(Cl)c2)C1",
    "Result": "< 4.52"
  }
]

###

test: Elimination half life in rhesus monkey; assay type: ADME, organism-based, Macaca mulatta; settings: in vivo, read-out: beta t1/2 (converted)

[
  {
    "Mol Smiles": "O=C(C1=C(c2ccc(CCCOc3c(F)ccc(F)c3Cl)cc2)C[C@@H]2CNC[C@H]1N2)N(Cc1cccc(Cl)c1Cl)C1CC1",
    "Value Units": "h",
    "half-life": 10
  }
]
